Overview of recorded FGFR1/FGFR3 IC50 ratio for various compounds
- study_target: FGFR3 enzyme (Homo sapiens (Human))
- test_method_notes: FGFR Enzymatic Assay (FRET peptide phosphorylation), FGFR3
- Assay type: biochemical
- measurement_conditions: FGFR3 selectivity; pre-incubated for 4 hours

Value of measured FGFR1/FGFR3 IC50 ratio for the entry `COc1cc(OC)c(F)c(N2Cc3cnc(-c4ccccc4)cc3C3(CC3)C2=O)c1F` : >10

Value of measured FGFR1/FGFR3 IC50 ratio for the entry `COc1cc(OC)c(F)c(N2Cc3cnc(-c4cn(C)nc4C)cc3N(Cc3cc(C(C)C)on3)C2=O)c1F` : >5

Value of measured FGFR1/FGFR3 IC50 ratio for the entry `CCN1C(=O)N(c2c(F)c(OC)cc(OC)c2F)Cc2cnc(-c3cn(CC(=O)N4CCOCC4)nc3C)cc21` : >1

Value of measured FGFR1/FGFR3 IC50 ratio for the entry `COc1cc(OC)c(F)c(N2Cc3cnc(-c4cn(C)nc4C)cc3N(c3ccc(C(=O)N(C)C)cc3)C2=O)c1F` : >3

Value of measured FGFR1/FGFR3 IC50 ratio for the entry COc1cc(OC)c(F)c(N2Cc3cnc(-c4cn(C5CCS(=O)(=O)C5)nc4C)cc3C3(CC3)C2=O)c1F (centres unmarked) : >5

Value of measured FGFR1/FGFR3 IC50 ratio for the entry `COc1cc(OC)c(F)c(N2Cc3cnc(-c4cn(C)nc4C)cc3N(c3ccc(C#N)cn3)C2=O)c1F` : >5

Value of measured FGFR1/FGFR3 IC50 ratio for the entry `COc1cc(OC)c(F)c(N2Cc3cnc(-c4cncc(-n5ccnc5)c4)cc3C3(CC3)C2=O)c1F` : >3

----------
- study_target: FGFR3 enzyme (Homo sapiens (Human), UniProt P22607)
- Sequence (P22607 23-806): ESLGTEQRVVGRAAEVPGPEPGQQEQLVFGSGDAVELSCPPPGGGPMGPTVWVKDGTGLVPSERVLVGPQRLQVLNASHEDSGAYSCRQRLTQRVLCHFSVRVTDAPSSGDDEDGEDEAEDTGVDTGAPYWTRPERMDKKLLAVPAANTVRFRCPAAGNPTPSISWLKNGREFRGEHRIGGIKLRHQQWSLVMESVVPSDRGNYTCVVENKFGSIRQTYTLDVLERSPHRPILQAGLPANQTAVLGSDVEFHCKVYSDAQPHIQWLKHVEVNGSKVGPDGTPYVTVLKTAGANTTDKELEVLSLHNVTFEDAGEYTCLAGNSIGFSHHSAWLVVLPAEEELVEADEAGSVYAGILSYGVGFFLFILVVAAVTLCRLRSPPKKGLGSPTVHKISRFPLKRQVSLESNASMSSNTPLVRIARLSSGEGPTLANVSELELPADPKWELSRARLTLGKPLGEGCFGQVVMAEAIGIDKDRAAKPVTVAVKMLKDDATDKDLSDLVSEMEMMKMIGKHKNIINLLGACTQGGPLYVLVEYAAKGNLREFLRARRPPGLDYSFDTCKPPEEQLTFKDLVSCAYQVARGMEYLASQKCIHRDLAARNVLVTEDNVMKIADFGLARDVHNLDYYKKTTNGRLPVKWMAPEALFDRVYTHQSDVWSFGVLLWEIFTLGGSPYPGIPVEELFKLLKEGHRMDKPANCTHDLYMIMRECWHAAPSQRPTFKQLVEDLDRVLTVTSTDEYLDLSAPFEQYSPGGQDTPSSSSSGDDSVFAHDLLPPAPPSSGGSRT
- test_method_notes: FGFR Enzymatic Assay (FRET peptide phosphorylation), FGFR3
- Type: biochemical
- measurement_conditions: FGFR3 selectivity; pre-incubated for 4 hours
result_type: FGFR1/FGFR3 IC50 ratio

INSERT INTO assay_data (compound, study_target, reported_result) VALUES
  ('COc1cc(OC)c(F)c(N2Cc3cnc(-c4cnn(CC5CN(S(C)(=O)=O)C5)c4)cc3C3(CC3)C2=O)c1F [Example 166]', 'FGFR3 enzyme (Homo sapiens (Human), UniProt P22607)', '>3'),
  ('COc1cc(OC)c(F)c(N2Cc3cnc(-c4cn(C)nc4C)cc3N(CC3CC3)C2=O)c1F [Example 29]', 'FGFR3 enzyme (Homo sapiens (Human), UniProt P22607)', '>1');

Value of measured FGFR1/FGFR3 IC50 ratio for the entry CNC(=O)c1ccc(-c2cc3c(cn2)CN(c2c(F)c(OC)cc(OC)c2F)C(=O)C32CC2)cn1 [Example 18] : >5

Value of measured FGFR1/FGFR3 IC50 ratio for the entry CCn1cc(-c2cc3c(cn2)CN(c2c(F)c(OC)cc(OC)c2F)C(=O)C32CC2)c(C)n1 [Example 158] : >5

Value of measured FGFR1/FGFR3 IC50 ratio for the entry COc1cc(OC)c(F)c(N2Cc3cnc(-c4cnn(CC5CN(C(C)=O)C5)c4)cc3C3(CC3)C2=O)c1F [Example 167] : >3

Value of measured FGFR1/FGFR3 IC50 ratio for the entry COc1cc(OC)c(F)c(N2Cc3cnc(-c4cn(C)nc4C)cc3N(c3ccc4ncsc4c3)C2=O)c1F [Example 41] : >1

Value of measured FGFR1/FGFR3 IC50 ratio for the entry COc1cc(OC)c(F)c(N2Cc3cnc(-c4cn(C)nc4C)cc3N(C3CCN(S(C)(=O)=O)CC3)C2=O)c1F [Example 71] : >5

Value of measured FGFR1/FGFR3 IC50 ratio for the entry COc1cc(OC)c(F)c(N2Cc3cnc(-c4cnn(C)c4)cc3C3(CC3)C2=O)c1F [Example 186] : >5
